// compounds with reported pKi on Beta-1 adrenergic receptor (Homo sapiens), multi-publication
# pKi is unitless: minus log10 of the molar concentration; print number only

Query string: What does the record list as pKi for CS(=O)(=O)Nc1cc(C[C@H](O)CN[C@H](Cc2ccccc2)c2ccc(OC(F)F)c(OC(F)F)c2)ccc1O ?
Result string: 6.16

Query string: Now the compound COc1cccc2c1CC[C@H]1CN(CCn3c(=O)[nH]c4c(sc5cccnc54)c3=O)C[C@@H]21
Result string: 4.97

Query string: Now the compound CCC(CC)CNC[C@H](O)c1ccc(O)c2[nH]c(=O)sc12
Result string: 6.77

Query string: Now the compound CCc1cc2c(cc1CC)CC(C)(NC[C@H](O)c1ccc(O)c3[nH]c(=O)ccc13)C2
Result string: 8.72

Query string: Now the compound COc1ccc(Nc2ccc(CCNCC(O)c3ccc(O)c(CO)c3)cc2)cc1 (racemic)
Result string: 4.50

Query string: Now the compound O[C@@H](CNCCOc1ccc(-c2cscn2)cc1)c1cccnc1
Result string: 6.85

====

// molecules with reported Ki on Beta-1 adrenergic receptor (Homo sapiens), multi-publication
The response must be a number in µM with no trailing unit.

Query string: What does the record list as Ki for COc1ccc2nc(-c3ccc(OC[C@@H](O)CNC(C)CF)cc3)n(C)c(=O)c2c1 (stereo not given in full) ?
Result string: 3

Query string: Now the molecule CNCC(O)COc1ccc(S(=O)(=O)NC(C)C)cc1.Cl (stereo not given)
Result string: 10.5

Query string: Now the molecule COc1ccc2nc(-c3ccc(OCC(O)CNC(C)C)cc3)n(C)c(=O)c2c1 (racemic)
Result string: 2.4

Query string: Now the molecule Cc1nc(N2CCNCC2)c2c3c(sc2n1)CC(C)CC3 (stereo not given)
Result string: 0.676

====

// compounds with reported pKi on Beta-1 adrenergic receptor (Homo sapiens, UniProt P08588), multi-publication
Sequence (P08588 whole entry): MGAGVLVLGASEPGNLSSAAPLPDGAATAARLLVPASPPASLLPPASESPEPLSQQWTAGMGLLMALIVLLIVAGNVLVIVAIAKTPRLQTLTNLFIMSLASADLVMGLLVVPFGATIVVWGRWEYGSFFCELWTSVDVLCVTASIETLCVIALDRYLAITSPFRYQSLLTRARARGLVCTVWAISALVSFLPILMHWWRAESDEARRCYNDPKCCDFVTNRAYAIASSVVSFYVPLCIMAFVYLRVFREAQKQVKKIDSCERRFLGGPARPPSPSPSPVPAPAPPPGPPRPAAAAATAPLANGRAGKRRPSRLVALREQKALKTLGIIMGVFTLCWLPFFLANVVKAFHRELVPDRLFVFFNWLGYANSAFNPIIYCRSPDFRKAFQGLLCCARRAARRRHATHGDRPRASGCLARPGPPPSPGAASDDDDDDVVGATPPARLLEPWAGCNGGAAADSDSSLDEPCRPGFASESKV
# pKi is unitless: minus log10 of the molar concentration; print number only

# example entries with known answers
{"COMPOUND": "Cc1nc(-c2ccc(OCCNC[C@H](O)c3cccnc3)cc2)c(C)o1", "ASSAY_TARGET": "Beta-1 adrenergic receptor (Homo sapiens, UniProt P08588)", "pKi": 5.81}
{"COMPOUND": "CC(C)(Cc1ccc(Oc2ccc(C(N)=O)cn2)cc1)NC[C@H](O)COc1cccc2[nH]c3ccccc3c12", "ASSAY_TARGET": "Beta-1 adrenergic receptor (Homo sapiens, UniProt P08588)", "pKi": 10.64}
{"COMPOUND": "OCc1cc(C(O)CNCCCCCCCCCCCc2ccccc2)ccc1O (stereo not given)", "ASSAY_TARGET": "Beta-1 adrenergic receptor (Homo sapiens, UniProt P08588)", "pKi": 5.64}

Query string: What does the record list as pKi for COC(=O)c1ccc(Nc2ccc(CCNCC(O)c3ccc(O)c(CO)c3)cc2)cc1 (racemic) ?
Result string: 5.00

Query string: Now the compound COc1cc(OC)c(C2NCCc3c2[nH]c2ccc(Cl)cc32)cc1OC (stereo not given)
Result string: 5.83

====

// molecules with reported Ki on UniProt P08588, multi-publication
The response must be a number in nM with no trailing unit.

# example entries with known answers
{"MOLECULE": "OCc1cc(C(O)CNCCc2ccc(Nc3ccc4c(c3)CCC4)cc2)ccc1O (racemic)", "Ki, nM": 25100}
{"MOLECULE": "COc1cccc(Nc2ccc(CCNCC(O)c3ccc(O)c(CO)c3)cc2)c1 (racemic)", "Ki, nM": 12600}
{"MOLECULE": "CS(=O)(=O)Oc1cccc2c(CCNC[C@H](O)c3cccc(NS(=O)(=O)c4cccc(N)c4)c3)c[nH]c12", "Ki, nM": 89}
{"MOLECULE": "CCc1cc2c(cc1CC)CC(NCCc1ccc(O)c3[nH]c(=O)ccc13)C2", "Ki, nM": 478}

Query string: What does the record list as Ki for CCCCN(CCCC)CCNC[C@H](O)c1ccc(O)c2[nH]c(=O)sc12 ?
Result string: 31.3

====

// compounds with reported Ki on UniProt P08588, multi-publication

# example entries with known answers
{"COMPOUND": "COc1ccc(Nc2ccc(CCNCC(O)c3ccc(O)c(CO)c3)cc2)cc1-c1ccccc1 (racemic)", "READOUT_NAME": "Ki", "OBSERVED_VALUE": "20000 nM"}
{"COMPOUND": "CC(C)Oc1ccc(Nc2ccc(CCNCC(O)c3ccc(O)c(CO)c3)cc2)cc1 (racemic)", "READOUT_NAME": "Ki", "OBSERVED_VALUE": "15800 nM"}
{"COMPOUND": "CS(=O)(=O)Nc1cc(C[C@@H](O)CN[C@@H](CCc2ccccc2)c2ccc(OC(F)F)c(OC(F)F)c2)ccc1O", "READOUT_NAME": "Ki", "OBSERVED_VALUE": "490 nM"}
{"COMPOUND": "OCc1cc(C(O)CNCCc2ccc(N3CCN(c4ccccc4)CC3)cc2)ccc1O (racemic)", "READOUT_NAME": "Ki", "OBSERVED_VALUE": "> 10000 nM"}
{"COMPOUND": "CC(C)NC[C@H](O)COc1ccccc1CCCn1cc(CNCc2cn(CCCc3ccccc3OC[C@@H](O)CNC(C)C)nn2)nn1", "READOUT_NAME": "Ki", "OBSERVED_VALUE": "1.1 nM"}
{"COMPOUND": "OCc1cc(C(O)CNCCc2ccc(Nc3ccc4ccccc4c3)cc2)ccc1O (racemic)", "READOUT_NAME": "Ki", "OBSERVED_VALUE": "12600 nM"}
{"COMPOUND": "CCCCc1ccc2c(c1)CC(NC[C@H](O)c1ccc(O)c3[nH]c(=O)ccc13)C2 (stereo partly drawn)", "READOUT_NAME": "Ki", "OBSERVED_VALUE": "259 nM"}

Query string: What does the record list as Ki for CC(C)NC[C@H](O)COc1ccccc1CCCCCCCCc1ccccc1OC[C@@H](O)CNC(C)C ?
Result string: 4.17 nM

====

// molecules with reported Ki on Beta-1 adrenergic receptor (Homo sapiens), multi-publication

# example entries with known answers
{"MOLECULE": "CCCNCC(O)COc1ccc(C(=O)NCCc2ccc(S(N)(=O)=O)cc2)cc1 (centres undefined)", "Ki": "> 100000 nM"}
{"MOLECULE": "CNCC(O)COc1ccc(S(N)(=O)=O)cc1 (centres undefined)", "Ki": "> 100000 nM"}
{"MOLECULE": "CCCCN1CCC(COC(=O)c2cc(Cl)c(N)c3c2OCCO3)CC1", "Ki": "> 1000 nM"}
{"MOLECULE": "CC(C)NC[C@H](O)COc1ccccc1-n1cc(CNCc2cn(-c3ccccc3OC[C@@H](O)CNC(C)C)nn2)nn1", "Ki": "479 nM"}
{"MOLECULE": "N#Cc1cc(F)cc(C#Cc2csc(F)n2)c1", "Ki": "> 10000 nM"}
{"MOLECULE": "COc1ccc(OC)c(C2CCN(Cc3cnn(-c4ccccc4F)c3C)C2)c1 (centres undefined)", "Ki": "> 1000 nM"}
{"MOLECULE": "CN1CCc2c(c3cccc4c3n2Cc2ccccc2C4)C1", "Ki": "> 10000 nM"}
{"MOLECULE": "OCc1cc(C(O)CNCCc2ccc(N3CCC(CCCc4ccccc4)CC3)cc2)ccc1O (racemic)", "Ki": "126000 nM"}
{"MOLECULE": "CC(C)c1nc(-c2ccc(OCCNC[C@H](O)c3cccnc3)cc2)co1", "Ki": "360 nM"}
{"MOLECULE": "CN(CC[C@@H](Oc1ccc(C(F)(F)F)cc1)c1ccccc1)CC(=O)[O-].[Li+]", "Ki": "> 10000 nM"}

Query string: What does the record list as Ki for CCc1cc2c(cc1CC)CC(NC[C@H](O)c1ccc(O)c3c1CCC(=O)N3)C2 ?
Result string: 183 nM

Query string: Now the molecule O=C(NC1CCCCC1)[C@H](Cc1ccccc1)NC[C@H](O)c1ccc(O)c2[nH]c(=O)sc12
Result string: > 1000 nM

Query string: Now the molecule O[C@@H](CNCCOc1ccc(-c2csc(C(F)(F)F)n2)cc1)c1cccnc1
Result string: 100 nM

Query string: Now the molecule O[C@@H](CNC12CC3CC(CC(C3)C1)C2)COc1cccc2[nH]ccc12
Result string: 7.92 nM

====

// compounds with reported Ki on Beta-1 adrenergic receptor (Homo sapiens), multi-publication
The response must be a number in µM with no trailing unit.

# example entries with known answers
{"COMPOUND": "COc1ccc([C@H](CCc2ccccc2)NC[C@H](O)Cc2ccc(O)c(NS(C)(=O)=O)c2)cc1OC", "Ki, µM": 1}
{"COMPOUND": "CNCC(O)COc1ccc(S(=O)(=O)NCc2ccccc2)cc1 (stereo not given)", "Ki, µM": 79.4}
{"COMPOUND": "CCN(CC)CCCC(C)Nc1cnc(C(=O)Nc2ccc(Cl)c3cccnc23)cn1 (stereo not given)", "Ki, µM": 6.35}

Query string: What does the record list as Ki for COCc1nc(-c2ccc(OCCNC[C@H](O)c3cccnc3)cc2)co1 ?
Result string: 0.21

Query string: Now the compound Cc1c(C)c(C)c2c(c1C)CC(NC[C@H](O)c1ccc(O)c3[nH]c(=O)ccc13)C2
Result string: 0.421

Query string: Now the compound CCc1nc(-c2ccc(OCCNC[C@H](O)c3cccnc3)cc2)co1
Result string: 0.4

Query string: Now the compound COc1ccc2nc(-c3ccc(OCC(O)CNC(C)CF)cc3)n(C)c(=O)c2c1 (mixture of isomers)
Result string: 2.3
